# Tested on: Aeromonas 3 (Aeromonas popoffii)
# experiment-description: relative growth (AUC of 72 h growth curve relative to DMSO control, dAUC) (ratio); higher = more growth (less inhibition), active = hit call of the paper
# condition: 20 µM
Each entry below carries its recorded relative growth.

{"molecule-smiles": "CCOC(=O)OC1=C(c2cc(C)ccc2C)C(=O)N[C@]12CC[C@@H](OC)CC2", "tested-target": "Aeromonas 3 (Aeromonas popoffii)", "relative growth": 1.01}
{"molecule-smiles": "C[C@@H]1[C@@H](c2ccc(Cl)cc2)SC(=O)N1C(=O)NC1CCCCC1", "tested-target": "Aeromonas 3 (Aeromonas popoffii)", "relative growth": 1.01}
{"molecule-smiles": "C[N+]1(C)CCCCC1", "tested-target": "Aeromonas 3 (Aeromonas popoffii)", "relative growth": 1.02}
{"molecule-smiles": "Nc1c(Cl)c(F)nc(OCC(=O)O)c1Cl", "tested-target": "Aeromonas 3 (Aeromonas popoffii)", "relative growth": 0.991}
{"molecule-smiles": "COc1cc(C)c(C(=O)c2c(OC)ccc(Br)c2C)c(OC)c1OC", "tested-target": "Aeromonas 3 (Aeromonas popoffii)", "relative growth": 1.1}
{"molecule-smiles": "CC(C)(C)c1ccc(CSc2cnn(C(C)(C)C)c(=O)c2Cl)cc1", "tested-target": "Aeromonas 3 (Aeromonas popoffii)", "relative growth": 1.03}
{"molecule-smiles": "CCNC(=O)NC(=O)/C(C#N)=N/OC", "tested-target": "Aeromonas 3 (Aeromonas popoffii)", "relative growth": 0.988}
{"molecule-smiles": "COC(=O)Nc1nc2ccccc2[nH]1", "tested-target": "Aeromonas 3 (Aeromonas popoffii)", "relative growth": 0.973}
{"molecule-smiles": "O=C1c2ccccc2C(=O)N1SC(Cl)(Cl)Cl", "tested-target": "Aeromonas 3 (Aeromonas popoffii)", "relative growth": 0.992}
{"molecule-smiles": "CC(C)(C)[C@@H](O)[C@H](Oc1ccc(Cl)cc1)n1cncn1", "tested-target": "Aeromonas 3 (Aeromonas popoffii)", "relative growth": 1.03}
{"molecule-smiles": "O=C(O)c1nc(Cl)ccc1Cl", "tested-target": "Aeromonas 3 (Aeromonas popoffii)", "relative growth": 0.997}
{"molecule-smiles": "CS(=O)(=O)NC(=O)c1cc(Oc2ccc(C(F)(F)F)cc2Cl)ccc1[N+](=O)[O-]", "tested-target": "Aeromonas 3 (Aeromonas popoffii)", "relative growth": 1.03}

====

# System: Community 4
# experiment-description: relative growth (AUC of 72 h growth curve relative to DMSO control, dAUC) (ratio); higher = more growth (less inhibition), active = hit call of the paper
# condition: 20 µM

{"compound": "COc1cccc(C(=O)NN(C(=O)c2cc(C)cc(C)c2)C(C)(C)C)c1C", "relative growth": 0.822}
{"compound": "CC(C)NC(=O)N1CC(=O)N(c2cc(Cl)cc(Cl)c2)C1=O", "relative growth": 0.925}
{"compound": "COc1ccc(C(=CC(=O)N2CCOCC2)c2ccc(Cl)cc2)cc1OC (mixture of isomers)", "relative growth": 1.07}
{"compound": "Nc1c([N+](=O)[O-])ccc(Oc2ccccc2)c1Cl", "relative growth": 0.851}
{"compound": "CCOc1ccc(C(C)(C)COCc2cccc(Oc3ccccc3)c2)cc1", "relative growth": 0.901}
{"compound": "N#Cc1nn(-c2c(Cl)cc(C(F)(F)F)cc2Cl)c(N)c1[S+]([O-])C(F)(F)F (stereo unspecified)", "relative growth": 1.07}
{"compound": "O=C1C=C(N(Cc2ccc(Cl)nc2)CC(F)F)CO1", "relative growth": 1.01}
{"compound": "O=C(O)c1nc(Cl)ccc1Cl", "relative growth": 0.903}
{"compound": "O=C1C2(Cl)C3(Cl)C4(Cl)C(Cl)(Cl)C5(Cl)C3(Cl)C1(Cl)C5(Cl)C24Cl (stereo unspecified)", "relative growth": 0.858}
{"compound": "N#Cc1c(Cl)c(Cl)c(Cl)c(C#N)c1Cl", "relative growth": 1.08}
{"compound": "CC[C@H](C)C1O[C@]2(C=C[C@@H]1C)C[C@@H]1C[C@@H](C/C=C(\\C)[C@@H](O[C@H]3C[C@H](OC)[C@@H](O[C@H]4C[C@H](OC)[C@H](NC)[C@H](C)O4)[C@H](C)O3)[C@@H](C)/C=C/C=C3\\CO[C@@H]4[C@H](O)C(C)=C[C@@H](C(=O)O1)[C@]34O)O2 (stereo partly specified)", "relative growth": 0.787}
{"compound": "CCc1cccc(C)c1N(C(=O)CCl)[C@@H](C)COC", "relative growth": 1.01}
{"compound": "CC1(C)C(C=C(Cl)Cl)C1C(=O)OC(C#N)c1ccc(F)c(Oc2ccccc2)c1 (stereo unspecified)", "relative growth": 0.954}
{"compound": "CC(COc1ccc(Oc2ccccc2)cc1)Oc1ccccn1 (stereo unspecified)", "relative growth": 1.08}
{"compound": "N#CCNC(=O)c1cnccc1C(F)(F)F", "relative growth": 0.954}
{"compound": "COCC(C)N(C(=O)CCl)c1c(C)csc1C (stereo unspecified)", "relative growth": 0.913}
{"compound": "CNC(=O)/C=C(\\C)OP(=O)(OC)OC", "relative growth": 0.942}
{"compound": "CCSC(C)CC1CC(=O)C(/C(CC)=N/OC/C=C/Cl)=C(O)C1 (mixture of isomers)", "relative growth": 1.09}
{"compound": "N#Cc1cc(Br)c(O)c(Br)c1", "relative growth": 1.08}
{"compound": "O=C1c2ccccc2C(=O)N1SC(Cl)(Cl)Cl", "relative growth": 0.962}
{"compound": "CCOP(=S)(OCC)Oc1cc(C)nc(C(C)C)n1", "relative growth": 0.904}

====

# Tested on: Argrobacterium 1 (Agrobacterium sp.)
# experiment-description: relative growth (AUC of 72 h growth curve relative to DMSO control, dAUC) (ratio); higher = more growth (less inhibition), active = hit call of the paper;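 active = growth AUC significantly below the DMSO wells by Dunnett test; inactive = the rest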
# condition: 20 µM
Labels: YES = active, NO = inactive

{"molecule": "Cc1cccc2sc3nncn3c12", "group-label": "NO"}
{"molecule": "CC(C)(C)c1ccc(CSc2cnn(C(C)(C)C)c(=O)c2Cl)cc1", "group-label": "NO"}
{"molecule": "COC(=O)N(OC)c1ccccc1COc1ccn(-c2ccc(Cl)cc2)n1", "group-label": "NO"}
{"molecule": "C[N+]1(C)CCCCC1", "group-label": "NO"}
{"molecule": "Cc1nc(N(C)C)nc(OC(=O)N(C)C)c1C", "group-label": "NO"}
{"molecule": "CCCCCCCCCCCCNC(=N)N", "group-label": "YES"}
{"molecule": "N#CC(CCc1ccc(Cl)cc1)(Cn1cncn1)c1ccccc1 (configuration not stated)", "group-label": "NO"}

====

# Tested on: Community 10
# experiment-description: relative growth (AUC of 72 h growth curve relative to DMSO control, dAUC) (ratio); higher = more growth (less inhibition), active = hit call of the paper
# condition: 20 µM
property: relative growth

{"molecule": "CNC(=O)c1cc(Cl)cc(C)c1NC(=O)c1cc(Br)nn1-c1ncccc1Cl", "tested-target": "Community 10", "property": "relative growth", "value-observed": "1.14 (inactive)"}
{"molecule": "CC(C)N1C(=O)N(c2ccccc2)CS/C1=N\\C(C)(C)C", "tested-target": "Community 10", "property": "relative growth", "value-observed": "0.858 (inactive)"}
{"molecule": "C[N+]1(C)CCCCC1", "tested-target": "Community 10", "property": "relative growth", "value-observed": "1.01 (inactive)"}
{"molecule": "CC1=NNC(=O)N(/N=C/c2cccnc2)C1", "tested-target": "Community 10", "property": "relative growth", "value-observed": "0.983 (inactive)"}
{"molecule": "Cc1cc(C(C#N)c2ccc(Cl)cc2)c(Cl)cc1NC(=O)c1cc(I)cc(I)c1O (stereo unspecified)", "tested-target": "Community 10", "property": "relative growth", "value-observed": "0.677 (inactive)"}
{"molecule": "COP(=O)(OC)OC=C(Cl)Cl", "tested-target": "Community 10", "property": "relative growth", "value-observed": "1.04 (inactive)"}

====

# Test system: Oryzobacter 1 (Oryzobacter terrae)
# experiment-description: relative growth (AUC of 72 h growth curve relative to DMSO control, dAUC) (ratio); higher = more growth (less inhibition), active = hit call of the paper
# condition: 20 µM
Think of 1 as a floor: if relative growth stands on it or above, it is rule met; beneath it, rule not met.

{"compound": "CC(C)N(C(=O)COc1nnc(C(F)(F)F)s1)c1ccc(F)cc1", "tested-target": "Oryzobacter 1 (Oryzobacter terrae)", "group-label": "rule met"}
{"compound": "O=C(NC(=O)c1c(F)cccc1F)Nc1ccc(Cl)cc1", "tested-target": "Oryzobacter 1 (Oryzobacter terrae)", "group-label": "rule met"}
{"compound": "O=C(Nc1ccc(F)cc1F)c1cccnc1Oc1cccc(C(F)(F)F)c1", "tested-target": "Oryzobacter 1 (Oryzobacter terrae)", "group-label": "rule met"}
{"compound": "CCc1cccc(C)c1N(C(=O)CCl)[C@@H](C)COC", "tested-target": "Oryzobacter 1 (Oryzobacter terrae)", "group-label": "rule met"}
{"compound": "OC(Cc1ccccc1Cl)(Cn1nc[nH]c1=S)C1(Cl)CC1 (stereo not given)", "tested-target": "Oryzobacter 1 (Oryzobacter terrae)", "group-label": "rule not met"}
{"compound": "O=C1C2(Cl)C3(Cl)C4(Cl)C(Cl)(Cl)C5(Cl)C3(Cl)C1(Cl)C5(Cl)C24Cl (stereo not given)", "tested-target": "Oryzobacter 1 (Oryzobacter terrae)", "group-label": "rule not met"}
{"compound": "CCCN(CCC)C(=O)SCc1ccccc1", "tested-target": "Oryzobacter 1 (Oryzobacter terrae)", "group-label": "rule met"}
{"compound": "CO/C=C(/C(=O)OC)c1ccccc1Oc1cc(Oc2ccccc2C#N)ncn1", "tested-target": "Oryzobacter 1 (Oryzobacter terrae)", "group-label": "rule met"}
{"compound": "COCc1cnc(C2=NC(C)(C(C)C)C(=O)N2)c(C(=O)O)c1 (stereo not given)", "tested-target": "Oryzobacter 1 (Oryzobacter terrae)", "group-label": "rule met"}
{"compound": "C[C@@H]1[C@@H](c2ccc(Cl)cc2)SC(=O)N1C(=O)NC1CCCCC1", "tested-target": "Oryzobacter 1 (Oryzobacter terrae)", "group-label": "rule not met"}
{"compound": "CC1(C)C(C(=O)OC(C#N)c2cccc(Oc3ccccc3)c2)C1(C)C (stereo not given)", "tested-target": "Oryzobacter 1 (Oryzobacter terrae)", "group-label": "rule met"}
{"compound": "COC(=O)Nc1nc2ccccc2[nH]1", "tested-target": "Oryzobacter 1 (Oryzobacter terrae)", "group-label": "rule met"}
{"compound": "O=C1C=C(N(Cc2ccc(Cl)nc2)CC(F)F)CO1", "tested-target": "Oryzobacter 1 (Oryzobacter terrae)", "group-label": "rule met"}
{"compound": "Oc1ccc(Cl)cc1Cc1cc(Cl)ccc1O", "tested-target": "Oryzobacter 1 (Oryzobacter terrae)", "group-label": "rule not met"}
{"compound": "CCCCc1c(C)nc(NCC)nc1OS(=O)(=O)N(C)C", "tested-target": "Oryzobacter 1 (Oryzobacter terrae)", "group-label": "rule met"}
{"compound": "C#CCN1C(=O)COc2cc(F)c(N3C(=O)C4=C(CCCC4)C3=O)cc21", "tested-target": "Oryzobacter 1 (Oryzobacter terrae)", "group-label": "rule met"}
{"compound": "Cc1nnc(-c2ccccc2)c(=O)n1N", "tested-target": "Oryzobacter 1 (Oryzobacter terrae)", "group-label": "rule met"}
{"compound": "COc1ccc(C(=CC(=O)N2CCOCC2)c2ccc(Cl)cc2)cc1OC (mixture of isomers)", "tested-target": "Oryzobacter 1 (Oryzobacter terrae)", "group-label": "rule met"}
{"compound": "OC(Cn1cncn1)(c1ccc(F)cc1)c1ccccc1F (stereo not given)", "tested-target": "Oryzobacter 1 (Oryzobacter terrae)", "group-label": "rule met"}
{"compound": "CCOCN(C(=O)CCl)c1c(C)cccc1CC", "tested-target": "Oryzobacter 1 (Oryzobacter terrae)", "group-label": "rule met"}
{"compound": "CCOC(=O)OC1=C(c2cc(C)ccc2C)C(=O)N[C@]12CC[C@@H](OC)CC2", "tested-target": "Oryzobacter 1 (Oryzobacter terrae)", "group-label": "rule met"}
{"compound": "CN(C)C(CSS(=O)(=O)O)CSS(=O)(=O)O", "tested-target": "Oryzobacter 1 (Oryzobacter terrae)", "group-label": "rule met"}
{"compound": "COP(=S)(OC)SCN1C(=O)c2ccccc2C1=O", "tested-target": "Oryzobacter 1 (Oryzobacter terrae)", "group-label": "rule not met"}
{"compound": "CS(=O)(=O)c1cc(C(F)(F)F)ccc1C(=O)c1cnoc1C1CC1", "tested-target": "Oryzobacter 1 (Oryzobacter terrae)", "group-label": "rule not met"}
{"compound": "CC[C@H](C)C1O[C@]2(C=C[C@@H]1C)C[C@@H]1C[C@@H](C/C=C(\\C)[C@@H](O[C@H]3C[C@H](OC)[C@@H](O[C@H]4C[C@H](OC)[C@H](NC)[C@H](C)O4)[C@H](C)O3)[C@@H](C)/C=C/C=C3\\CO[C@@H]4[C@H](O)C(C)=C[C@@H](C(=O)O1)[C@]34O)O2 (stereo not given in full)", "tested-target": "Oryzobacter 1 (Oryzobacter terrae)", "group-label": "rule not met"}
{"compound": "CN/C(=N/CC1CCOC1)N[N+](=O)[O-] (stereo not given)", "tested-target": "Oryzobacter 1 (Oryzobacter terrae)", "group-label": "rule not met"}
{"compound": "N#Cc1c[nH]cc1-c1cccc2c1OC(F)(F)O2", "tested-target": "Oryzobacter 1 (Oryzobacter terrae)", "group-label": "rule met"}
{"compound": "COC(=O)N(C(=O)N1CO[C@@]2(C(=O)OC)Cc3cc(Cl)ccc3C2=N1)c1ccc(OC(F)(F)F)cc1", "tested-target": "Oryzobacter 1 (Oryzobacter terrae)", "group-label": "rule met"}
{"compound": "CCOc1ccc(C(C)(C)COCc2cccc(Oc3ccccc3)c2)cc1", "tested-target": "Oryzobacter 1 (Oryzobacter terrae)", "group-label": "rule met"}
{"compound": "CCCCOC(=O)[C@H](C)Oc1ccc(Oc2ccc(C#N)cc2F)cc1", "tested-target": "Oryzobacter 1 (Oryzobacter terrae)", "group-label": "rule met"}
{"compound": "CN/C(=N\\[N+](=O)[O-])NCc1cnc(Cl)s1", "tested-target": "Oryzobacter 1 (Oryzobacter terrae)", "group-label": "rule met"}
{"compound": "CNC(=O)ON=C(C)SC", "tested-target": "Oryzobacter 1 (Oryzobacter terrae)", "group-label": "rule not met"}
{"compound": "CSc1nnc(C(C)(C)C)c(=O)n1N", "tested-target": "Oryzobacter 1 (Oryzobacter terrae)", "group-label": "rule met"}
{"compound": "ClC1C(Cl)C(Cl)C(Cl)C(Cl)C1Cl (stereo not given)", "tested-target": "Oryzobacter 1 (Oryzobacter terrae)", "group-label": "rule met"}
{"compound": "Cc1cc(C)c(C2=C(OC(=O)CC(C)(C)C)C3(CCCC3)OC2=O)c(C)c1", "tested-target": "Oryzobacter 1 (Oryzobacter terrae)", "group-label": "rule met"}
{"compound": "CN1COCN(Cc2cnc(Cl)s2)/C1=N\\[N+](=O)[O-]", "tested-target": "Oryzobacter 1 (Oryzobacter terrae)", "group-label": "rule not met"}

Value source: the supplement of paper PMC12067926
